- System Tested: Monoamine transporters; serotonin & dopamine (Rattus norvegicus) (UniProt P31652+P23977)
- Sequence (P23977 whole entry, looked up): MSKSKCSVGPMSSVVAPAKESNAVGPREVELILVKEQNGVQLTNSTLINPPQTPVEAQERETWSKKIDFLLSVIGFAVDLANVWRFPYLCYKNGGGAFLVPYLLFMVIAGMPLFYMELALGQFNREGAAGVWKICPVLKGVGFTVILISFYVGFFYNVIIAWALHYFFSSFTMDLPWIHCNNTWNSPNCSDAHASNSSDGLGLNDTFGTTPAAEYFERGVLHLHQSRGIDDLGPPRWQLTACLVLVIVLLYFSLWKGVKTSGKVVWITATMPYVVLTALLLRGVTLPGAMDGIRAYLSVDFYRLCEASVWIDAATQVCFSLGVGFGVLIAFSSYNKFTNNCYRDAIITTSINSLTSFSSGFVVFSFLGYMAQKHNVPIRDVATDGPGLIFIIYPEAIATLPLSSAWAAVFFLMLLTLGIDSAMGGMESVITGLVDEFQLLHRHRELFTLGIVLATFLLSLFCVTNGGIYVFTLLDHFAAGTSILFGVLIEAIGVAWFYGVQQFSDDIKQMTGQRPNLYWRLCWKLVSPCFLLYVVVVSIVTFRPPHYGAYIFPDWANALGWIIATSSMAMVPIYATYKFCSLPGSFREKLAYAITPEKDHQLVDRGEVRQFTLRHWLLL
- Sequence (P31652 whole entry, looked up): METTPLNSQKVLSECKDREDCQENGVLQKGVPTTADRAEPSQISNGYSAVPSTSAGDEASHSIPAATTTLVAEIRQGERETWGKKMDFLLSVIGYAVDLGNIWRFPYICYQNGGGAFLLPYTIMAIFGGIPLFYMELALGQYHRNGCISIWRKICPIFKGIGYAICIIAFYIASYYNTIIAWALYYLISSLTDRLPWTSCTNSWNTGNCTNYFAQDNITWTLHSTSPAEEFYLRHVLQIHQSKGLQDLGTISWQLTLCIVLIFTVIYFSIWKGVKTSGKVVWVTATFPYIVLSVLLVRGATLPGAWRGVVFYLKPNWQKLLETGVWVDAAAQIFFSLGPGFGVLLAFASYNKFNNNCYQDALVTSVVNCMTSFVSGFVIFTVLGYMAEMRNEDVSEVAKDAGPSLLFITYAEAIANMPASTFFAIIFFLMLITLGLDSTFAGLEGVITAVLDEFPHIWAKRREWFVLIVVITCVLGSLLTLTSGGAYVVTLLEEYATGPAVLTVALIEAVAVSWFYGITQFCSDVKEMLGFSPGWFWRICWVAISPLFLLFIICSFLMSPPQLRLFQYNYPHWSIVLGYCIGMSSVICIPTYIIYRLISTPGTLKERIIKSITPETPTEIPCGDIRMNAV
- Experiment Notes: Binding affinity towards serotonin transporter compared to dopamine transporter.
- Type: protein assay
Readout Name: Ratio
One number for each entry.

The examples below pair each entry with its known result.
Compound | Ratio
CN1C2CCC1CC(CCOC(c1ccccc1)c1ccc(Cl)cc1)C2 (stereo not given) | 71
Oc1ccc(CN2C3CCC2CC(CCOC(c2ccc(F)cc2)c2ccc(F)cc2)C3)cc1 (stereo not given) | 27
Fc1ccc(C(OCC=C2CC3CCC(C2)N3Cc2ccccc2)c2ccc(F)cc2)cc1 | 281
CN1C2CCC1CC(CCOC(c1ccc(F)cc1)c1ccc(F)cc1)C2 (stereo not given) | 80
c1ccc(CN2C3CCC2CC(CCOC(c2ccccc2)c2ccccc2)C3)cc1 (stereo not given) | 48

Provide Ratio values for the following items, in order.
1. Fc1ccc(C(OCC=C2CC3CCC(C2)N3CCCc2ccccc2)c2ccc(F)cc2)cc1
2. Clc1ccc(C(OCCC2CC3CCC(C2)N3Cc2ccccc2)c2ccc(Cl)cc2)cc1 (stereo not given)

Reply:
152
9

Provide Ratio values for the following items, in order.
1. Oc1cccc(CN2C3CCC2CC(CCOC(c2ccc(F)cc2)c2ccc(F)cc2)C3)c1 (stereo not given)
2. CN1[C@@H]2CC[C@H]1C[C@@H](CCOC(c1ccccc1)c1ccccc1)C2
3. CN1C2CCC1CC(CCOC(c1ccc(Cl)cc1)c1ccc(Cl)cc1)C2 (stereo not given)

Reply:
[33, 243, 64]

---

- System Tested: Monoamine transporters; serotonin & dopamine (Rattus norvegicus) (UniProt P31652+P23977)
- Experiment Notes: Binding affinity towards serotonin transporter compared to dopamine transporter.
- Assay type: protein assay
Mark each entry Satisfied if its Ratio sits below 40, and Not satisfied for all others.

Molecule | System Tested | Class Label
Clc1ccc(C(OCCC2CC3CCC(C2)N3CCCc2ccccc2)c2ccc(Cl)cc2)cc1 (stereo unspecified) | Monoamine transporters; serotonin & dopamine (Rattus norvegicus) (UniProt P31652+P23977) | Satisfied
Fc1ccc(C(OCCC2CC3CCC(C2)N3Cc2ccccc2)c2ccc(F)cc2)cc1 (stereo unspecified) | Monoamine transporters; serotonin & dopamine (Rattus norvegicus) (UniProt P31652+P23977) | Not satisfied
Clc1ccc(C(OCCC2CC3CCC(C2)N3Cc2ccccc2)c2ccccc2)cc1 (stereo unspecified) | Monoamine transporters; serotonin & dopamine (Rattus norvegicus) (UniProt P31652+P23977) | Satisfied
C(COC(c1ccccc1)c1ccccc1)=C1CC2CCC(C1)N2Cc1ccccc1 | Monoamine transporters; serotonin & dopamine (Rattus norvegicus) (UniProt P31652+P23977) | Not satisfied
Clc1ccc(C(OCCC2CC3CCC(C2)N3CCCc2ccccc2)c2ccccc2)cc1 (stereo unspecified) | Monoamine transporters; serotonin & dopamine (Rattus norvegicus) (UniProt P31652+P23977) | Satisfied

Now let's try a different one.
Query: # strict comparison: is reported Ratio < 40? input = c1ccc(CCCN2[C@@H]3CC[C@H]2C[C@@H](CCOC(c2ccccc2)c2ccccc2)C3)cc1
Reply: Not satisfied

---

For each of the compounds below, state its pKi.
- System Tested: Sodium-dependent serotonin transporter (Rattus norvegicus, UniProt P31652)
- Sequence (P31652 whole entry): as the sequence (P31652 whole entry, looked up) above
Give bare numbers, as −log10 of the molar value.

The examples below pair each entry with its known result.
Compound | Numeric Value
CN1C2CCC1CC(CCOC(c1ccccc1)c1ccc(Cl)cc1)C2 (stereo not given) | 5.46
CN1C2CCC1CC(CCOC(c1ccc(F)cc1)c1ccc(F)cc1)C2 (stereo not given) | 5.61
C(COC(c1ccccc1)c1ccccc1)=C1CC2CCC(C1)N2Cc1ccccc1 | 5.27
Fc1ccc(C(OCC=C2CC3CCC(C2)N3CCCc2ccccc2)c2ccc(F)cc2)cc1 | 6.25

Consider the additional compound presented here.
Query: Look up pKi: c1ccc(CCCN2[C@@H]3CC[C@H]2C[C@@H](CCOC(c2ccccc2)c2ccccc2)C3)cc1
Reply: 6.12
